- Test system: H9c2
- assay-procedure: Induction of apoptosis in rat H9c2 cells at 40 uM after 24 hrs by DAPI/annexin V-FITC/PI double staining-based assay
- Format: cell-based
- protocol-conditions: h9c2, 24 h
observed-property: Activity

Value of Activity reported for the molecule `CCCCO[C@]12[C@H]3[C@@H](OC(=O)c4ccccc4)[C@](O)(C[C@H]3[C@@]34[C@@H](OC)C[C@@H](O)[C@@]5(COC)CN(C)[C@H]3[C@@H]1[C@H](OC)[C@H]54)[C@@H](OC)[C@@H]2O` is Toxic

Value of Activity reported for the molecule `COC[C@@]12CC[C@H](OC)[C@@]34[C@@H]5C[C@@]6(O)[C@H](OC(=O)c7ccccc7)[C@@H]5[C@@](OC(C)=O)([C@@H]([C@H](OC)[C@H]13)[C@@H]4N(C)C2)[C@@H](O)[C@@H]6OC` is Non-Toxic

Value of Activity reported for the molecule `CCCCO[C@]12[C@H]3[C@@H](OC(=O)c4ccccc4)[C@](O)(C[C@H]3[C@@]34[C@@H](OC)CC[C@@]5(COC)CN(CC)[C@H]3[C@@H]1[C@H](OC)[C@H]54)[C@@H](OC)[C@@H]2O` is Toxic

Value of Activity reported for the molecule `COC[C@]12CN(C)[C@H]3[C@@H]4[C@H](OC)[C@H]1[C@@]3([C@@H](OC)C[C@H]2O)[C@@H]1C[C@@]2(O)[C@H](OC(=O)c3ccccc3)[C@@H]1[C@]4(OC(C)=O)[C@@H](O)[C@@H]2OC` is Non-Toxic
